- Tested on: monocistronic NK5.1 HCV replicon in Huh7 cells
- testDescription: HCV replicon assay, monocistronic replicon cell line
- Type: cell-based, hepatitis C virus
- studyConditions: Hepatitis C virus, Huh-7; monocistronic NK5.1 HCV replicon in Huh7 cells; median value; read-out: Mono EC50 Median
- From the text: HCV Replicon Assays (Replicon EC50 (μM)) HCV replication can be measured by a replicon assay such as described by Vrolijk et al, J. Virol. Methods 110:201(2003), which is hereby incorporated in its entirety by reference. The method was implemented as follows. Monocistronic Replicon Cell Line: Human hepatocyte Huh7 cells containing the monocistronic NK5.1 replicon were obtained from Ralf Bartenschlager at the University of Mainz, Germany. […]
quantityKind: EC50

sampleSmiles: Oc1ccccc1-c1nnc(-c2c(Cl)cccc2Cl)o1
EC50: 12 µM

sampleSmiles: Cc1cccnc1-c1noc(-c2cc(Br)cc(Br)c2O)n1
EC50: 7.4 µM

sampleSmiles: CCN(CC)c1ccc(-c2nc(-c3cnccc3C(F)(F)F)n[nH]2)c(O)c1
EC50: > 3.2 µM

sampleSmiles: Oc1ccc(O)c(-c2nc(-c3cnccc3C(F)(F)F)n[nH]2)c1
EC50: 12 µM

sampleSmiles: CCN(CC)c1ccc(-c2n[nH]c(-c3ncccc3C)n2)c(O)c1
EC50: 8.1 µM

Now turn to the next compound.
The recorded EC50 for "COc1ccccc1-c1nnc(-c2ncccc2C(F)(F)F)o1" is 8.3 µM

* * *

Property: EC50; scope: individual compounds
- Tested on: monocistronic NK5.1 HCV replicon in Huh7 cells
- testDescription: HCV replicon assay, monocistronic replicon cell line
- Format: cell-based, hepatitis C virus
- studyConditions: Hepatitis C virus, Huh-7; monocistronic NK5.1 HCV replicon in Huh7 cells; median value; read-out: Mono EC50 Median
Respond with the bare value in µM.

sampleSmiles: CC(C)(C)OC(=O)Nc1ccc(-c2noc(-c3cc(Br)ccc3O)n2)nc1
result: 7.3

sampleSmiles: Oc1ccc(Br)cc1-c1nc(-c2cnccc2C(F)(F)F)n[nH]1
result: 12

API: the following record is the query input.
get_value(item= "CCOc1cccc(-c2nc(-c3ncccc3C)n[nH]2)c1O" , readout=EC50) returns 7.8
